Taken from the supplement of paper PMC8183993.

tested on: U2OS; experiment: mean cytoplasmic OPP incorporation (global translation) relative to DMSO (% of DMSO); higher = more protein synthesis; settings: 10 µM; 24 h
Whole data set: some 3,100 compounds, median “mean cytoplasmic OPP incorporation (global translation) relative to DMSO” near 100, cut for the lowest 2% near 56. The list comes from a sample in which the lowest values are over-represented; it also holds close analogues and randomly drawn compounds.
observable: mean cytoplasmic OPP incorporation
Respond numerically, and do not add a unit to the figure.

Please review the entries below; each comes with its answer.
{"compound": "C[CH2][Hg][S]c1ccccc1C(=O)[O-].[Na+]", "readout-number": 15.5}
{"compound": "C[C@@H]1O[C@@H](O[C@@H]2C=C3CC[C@@H]4[C@H](CC[C@]5(C)[C@@H](c6ccc(=O)oc6)CC[C@]45O)[C@@]3(C)CC2)[C@H](O)[C@H](O)[C@H]1O", "readout-number": 17.5}
{"compound": "Cn1cc(C(=O)C(=O)N[C@H]2CN3CCC2CC3)c2ccccc21", "readout-number": 99.4}
{"compound": "Cc1ncc(CN2CC=C(c3ccccc3)CC2)c(N)n1", "readout-number": 101}
{"compound": "CC[N+](CC)(CCCNC1=CC(=O)C(NCCC[N+](CC)(CC)Cc2ccccc2)=CC1=O)Cc1ccccc1 [Benzoquinonium dibromide]", "readout-number": 101}

Now for the compound whose mean cytoplasmic OPP incorporation we want.
# compound Cn1c2c(c3ccccc31)CCNCC2 ; its mean cytoplasmic OPP incorporation = 97.4
